biological target: Potassium voltage-gated channel subfamily KQT member 2 (Rattus norvegicus) (UniProt O88943); assay: rat KCNQ2 channel potentiation, selectivity assay for KCNQ1 potentiator project, KCNQ2-CHO-K1 cells (AID 493009); settings: FluxOR thallium flux fluorescence, at 10 µM, scaled: buffer 0, activator control 100;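 note: assay conditions were tuned for KCNQ1 rather than KCNQ2 modulators; signal is max minus min fluorescence divided by baseline after thallium stimulus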
Sequence (O88943 whole entry, looked up): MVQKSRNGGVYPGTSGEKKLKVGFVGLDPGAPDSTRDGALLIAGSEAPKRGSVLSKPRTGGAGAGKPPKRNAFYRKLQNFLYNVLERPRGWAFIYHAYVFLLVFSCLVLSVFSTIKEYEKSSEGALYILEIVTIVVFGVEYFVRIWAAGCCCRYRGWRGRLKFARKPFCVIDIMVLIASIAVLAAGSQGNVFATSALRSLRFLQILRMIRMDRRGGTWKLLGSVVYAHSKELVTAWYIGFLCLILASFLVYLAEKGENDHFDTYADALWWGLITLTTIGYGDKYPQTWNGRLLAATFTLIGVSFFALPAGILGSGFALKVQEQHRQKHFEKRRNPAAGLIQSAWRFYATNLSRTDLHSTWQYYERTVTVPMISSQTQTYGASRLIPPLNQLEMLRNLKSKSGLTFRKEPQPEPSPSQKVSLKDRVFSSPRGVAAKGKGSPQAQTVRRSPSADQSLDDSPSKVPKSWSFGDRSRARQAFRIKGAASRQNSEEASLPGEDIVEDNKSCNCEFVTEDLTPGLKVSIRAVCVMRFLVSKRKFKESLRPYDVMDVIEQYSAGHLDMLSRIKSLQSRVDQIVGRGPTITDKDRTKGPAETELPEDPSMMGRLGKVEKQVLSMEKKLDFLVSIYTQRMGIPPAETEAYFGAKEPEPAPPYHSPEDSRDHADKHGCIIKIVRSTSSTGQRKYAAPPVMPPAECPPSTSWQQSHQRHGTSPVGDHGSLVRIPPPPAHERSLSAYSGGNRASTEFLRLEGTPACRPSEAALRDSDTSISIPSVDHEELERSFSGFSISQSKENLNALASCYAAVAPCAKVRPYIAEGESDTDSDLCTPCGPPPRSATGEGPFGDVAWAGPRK
Calls of active or inactive are those of the source.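 Rule for the calls: active = mean duplicate potentiation above the buffer control mean plus 5 SD of buffer wells; inactive = the rest.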
Allowed answers: active, inactive

Please indicate how the test categorized "COc1ccc2nc(/N=C/c3c(C)[nH]n(-c4ccc(C)cc4C)c3=O)sc2c1" . active

Please indicate how the test categorized "O=c1cc(-c2ccccc2)nc2c(-c3ccccc3)c(C(F)(F)F)[nH]n12" . active

Please indicate how the test categorized "CNCc1ccccc1Sc1cccc2ccccc12" . inactive

Please indicate how the test categorized "O=C(CNc1ccc2c(c1)OCO2)N/N=C\c1cn(Cc2ccccc2)c2ccccc12" . inactive

Please indicate how the test categorized "CC(=O)Nc1cccc(/C(C)=N/NC(=O)c2ccc(Cl)cc2Cl)c1" . inactive

Please indicate how the test categorized "O=C(NNC(=S)NC(=O)c1sc2ccccc2c1Cl)c1ccc(Cl)cc1" . active

Please indicate how the test categorized "CCOC(=O)c1sc(NC(=O)c2ccncc2)nc1C" . active

Please indicate how the test categorized "COc1ccc(-c2csc(NC(=S)NC(=O)c3ccco3)n2)cc1" . active

Please indicate how the test categorized "CCOc1ccc(-c2noc(CCC(=O)NC3CCCC3)n2)cc1OC" . inactive

Please indicate how the test categorized "CSC(=S)N/N=C(\C)c1ccccc1" . active

Please indicate how the test categorized "CCN(CC)C(=S)NC(=O)c1ccc(Cl)cc1Cl" . active

Please indicate how the test categorized "Cc1csc(=O)n1CCC(=O)OCC(=O)NCc1ccc(F)cc1" . active

Please indicate how the test categorized CCCc1cc(-c2n[nH]c(=S)n2C(C)c2ccccc2)cs1 (stereo not drawn) . inactive

Please indicate how the test categorized "COc1cccc2sc(N(CCCN(C)C)C(=O)CCS(=O)(=O)c3ccccc3)nc12" . inactive

Please indicate how the test categorized "COc1cccc(NC(=S)NC(=O)c2c(Cl)c(C)nn2C)c1" . inactive

Please indicate how the test categorized "CCNC(=S)Nc1nc2c(cc1C(=O)OCC)CCCC2" . active

Please indicate how the test categorized "CCOc1ccc2[nH]c(=O)c(CN(CCN3CCCC3)C(=S)Nc3ccccc3OCC)cc2c1" . active

Please indicate how the test categorized "O=C(NC(=S)Nc1ccccc1Cl)c1cncc(Br)c1" . inactive

Please indicate how the test categorized Cc1nc(NCc2cccnc2)c2c3c(sc2n1)CC(C)CC3 (stereo not drawn) . active

Please indicate how the test categorized "O=C(NC(=S)NC1CCCCC1)c1ccc(F)cc1" . inactive

Please indicate how the test categorized "C/C(=N\NC(=S)Nc1cccc(C)c1)c1cc2ccccc2o1" . active

Please indicate how the test categorized "COC(=O)N1C(=O)[C@@](Cc2ccccc2)(c2ccccc2)N1C(=O)OC" . inactive

Please indicate how the test categorized "CN1CCN(S(=O)(=O)c2cccc(C(=O)Nc3cc(Cl)ccc3N3CCOCC3)c2)CC1" . inactive

====

biological target: Potassium voltage-gated channel subfamily KQT member 1 (Homo sapiens); test: KCNQ1 potassium channel potentiators, confirmation, FluxOR thallium flux, CHO cells, duplicates (AID 493007); conditions: KCNQ1 cell line, FluxOR thallium flux fluorescence, at 10 µM, % of reference activator effect, buffer zero
Active and inactive are the calls of the source.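 The calls were made as follows: active = potentiation averaged over duplicate wells exceeding buffer-only control mean by more than 3 SD; inactive = the rest.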
Allowed answers: active, inactive

Please indicate how the test categorized "O=C(COc1ccccc1F)Nc1c2c(nn1-c1ccccc1)CS(=O)(=O)C2" . inactive

Please indicate how the test categorized "CC(C)n1c(=S)[nH]c2scc(-c3cccs3)c2c1=O" . active

Please indicate how the test categorized "COC(=O)c1c(NC(=O)c2ccccc2)sc(C(=O)c2ccccc2)c1C" . inactive

Please indicate how the test categorized O=C(c1nnsc1S(=O)c1ccc(Cl)cc1)N1CCOCC1 (stereo not given) . active

Please indicate how the test categorized "CN(C)c1oc(-c2ccc(OCc3ccc(Cl)cc3)cc2)nc1C#N" . inactive

Please indicate how the test categorized "O=C(NC(=S)Nc1ccccc1N1CCCC1)c1cccc(F)c1" . active

Please indicate how the test categorized "COC(=O)c1ccc(CNC(=O)CSc2nc3sc(C)c(C)c3c(=O)n2C)o1" . active

Please indicate how the test categorized CC1(C)CC(=O)C2=C(C1)c1c(ccc3ccccc13)NC2c1cc([N+](=O)[O-])cc([N+](=O)[O-])c1O (stereo not given) . inactive

Please indicate how the test categorized "Cc1ccc(OCCn2c(=S)[nH]c3ccccc32)c(C(C)C)c1" . active

Please indicate how the test categorized "COc1ccc(-c2sc(C(=O)c3ccc(Cl)cc3Cl)cc2CC(=O)O)cc1" . inactive

Please indicate how the test categorized "O=C1NC(=S)S/C1=C\c1ccc2ccccc2c1" . active

Please indicate how the test categorized O=C(COC(=O)C1C2CC3OC(=O)C1C3C2)Nc1ccc(Cl)cc1 (stereo not given) . inactive

Please indicate how the test categorized "Cc1sc2nc(CSc3ccccc3)nc(N3CCN(C)CC3)c2c1C" . inactive

Please indicate how the test categorized "CCOC(=O)c1cnn(-c2nc(SC)nc3sc4c(c23)CCCC4)c1N" . active

Please indicate how the test categorized "CCC(=O)NNc1nc2c(Cl)cccc2s1" . inactive

Please indicate how the test categorized "O=C(c1ccco1)N1CCN(S(=O)(=O)c2ccc(F)cc2)CC1" . inactive

Please indicate how the test categorized "Fc1cccc2sc(Nc3nnc(-c4ccccc4)o3)nc12" . active

Please indicate how the test categorized "COc1cc(-c2noc(C)c2-c2ccc(N(C)C)nc2)cc(OC)c1OC" . inactive

Please indicate how the test categorized "O=C(NC(=S)N1CCCc2ccccc21)c1ccc([N+](=O)[O-])cc1" . active

Please indicate how the test categorized "CCCCCn1c(=O)c2ccccc2n2c(=S)[nH]nc12" . active

Please indicate how the test categorized "O=C(Nc1ccccc1Cl)N1CCN(c2ccccn2)CC1" . inactive

Please indicate how the test categorized O=C1CC(c2cccs2)Cc2nc(NC(=O)C3CC3)ncc21 (stereo not given) . inactive

Please indicate how the test categorized "COC(=O)c1ccc(C(=O)NC(=S)Nc2nc3c(s2)CCCC3)cc1" . active

Please indicate how the test categorized "CCN(c1ccccc1)S(=O)(=O)c1ccc(NC(=S)NC(=O)c2ccc(Br)o2)cc1" . active

Please indicate how the test categorized "N=c1ncn(Cc2ccccc2)c2nc(SCCOc3ccccc3)[nH]c12" . inactive

Please indicate how the test categorized "CCn1c(O)c(N=NC2=NC(=O)CS2)c2ccccc21" . inactive

Please indicate how the test categorized CC1CCCC(NC(=S)NC(=O)c2ccccc2Br)C1C (stereo not given) . active

Please indicate how the test categorized O=C(NCc1ccccc1)C(=O)NCC1CCCN1S(=O)(=O)c1cccs1 (stereo not given) . inactive

Please indicate how the test categorized "S=C(NCCc1ccccc1)N/N=C/C1CCCCC1" . inactive

Please indicate how the test categorized "O=C(NC(=S)NCCc1ccccc1)c1cccc(Cl)c1" . active

Please indicate how the test categorized "COc1ccc(C(=O)NC(=S)NNC(=O)c2ccc3ccccc3n2)cc1" . active

Please indicate how the test categorized "CCC(CC)C1=NN2C(=N)/C(=C\c3cc(C)n(-c4cccc(C)c4)c3C)C(=O)N=C2S1" . inactive

Please indicate how the test categorized COc1ccccc1-c1nc(C#N)c(N2CC(C)CC(C)C2)o1 (stereo not given) . inactive

Please indicate how the test categorized O=C(NCc1ccco1)C1CC(c2ccc(Cl)cc2)=NO1 (stereo not given) . inactive

Please indicate how the test categorized "COc1cc2c3nnc(-c4ccccc4)c-3cn(Cc3ccc(F)cc3)c2cc1OC" . inactive

Please indicate how the test categorized "CCOC(=O)c1sc(NC(=O)c2ccncc2)nc1C" . active

Please indicate how the test categorized "NC(=O)c1ccc(N2CCNC(=O)C2)c([N+](=O)[O-])c1" . inactive

Please indicate how the test categorized "CCc1ccc2[nH]c(O)c(N=Nc3nc(-c4ccccc4)cs3)c2c1" . active

Please indicate how the test categorized "COc1ccc(N2CCN(S(=O)(=O)c3ccc(OC)c(C(=O)N4CCCCC4)c3)CC2)cc1" . inactive

Please indicate how the test categorized "O=C(NCc1ccco1)c1ccc(=O)oc1" . inactive

Please indicate how the test categorized "O=c1c2ccc(Cl)cc2nc(-c2cccc(C(F)(F)F)c2)n1O" . active

Please indicate how the test categorized "CCOC(=O)c1c(-c2ccccc2)csc1NC(=S)NC" . active

Please indicate how the test categorized O=C(N/N=C/c1c[nH]c2ccccc12)C1COc2ccccc2O1 (stereo not given) . inactive

Please indicate how the test categorized "Fc1ccc(/C=N/n2c(-c3cccs3)n[nH]c2=S)cc1" . inactive

Please indicate how the test categorized CC(=O)Nc1ccc(/C=N/N2C(=O)NC(C)(c3ccc(OC(F)F)cc3)C2=O)cc1 (stereo not given) . active
